# tested target: β-IgI3 V53A, as used in ITC (Streptococcus agalactiae (GBS))
# test details: ITC; iTC200, 25°C, 30 mM Tris-HCl, 150 mM NaCl, pH 7.5; typically 500 µM unglycosylated CEACAM-N domain in the syringe, 50 µM IgI3 domain; duplicates
attribute measured: pKd
// pKd: -log10(molar conc.)

Report pKd for tag-less CEACAM1 N-terminal domain, unglycosylated (from UniProt P13688 34-141) (domain or fragment) please. 6.25

###

The entries below are paired with their reported Kd.
# tested target: IgSF (IgI3) domain of β protein, recombinant, as used in ITC (Streptococcus agalactiae (GBS))
# test details: ITC; iTC200, 25°C, 30 mM Tris-HCl, 150 mM NaCl, pH 7.5; typically 500 µM unglycosylated CEACAM-N domain in the syringe, 50 µM IgI3 domain; duplicates
Report as a plain number; the unit nM is understood.

Solved cases (2 shown):
> print(dat)
                                  substance  number
1  tag-less CEACAM1-N L95A, unglycosylated (from UniProt P13688 34-141) (domain or fragment)    1350
2  CEACAM5 N-terminal domain, unglycosylated (domain or fragment)     152

Now for a further substance.
Report Kd for tag-less CEACAM1-N V96A, unglycosylated (from UniProt P13688 34-141) (domain or fragment) please. 370

###

# tested target: β-IgI3 F42A, as used in ITC (Streptococcus agalactiae (GBS))
# test details: ITC; iTC200, 25°C, 30 mM Tris-HCl, 150 mM NaCl, pH 7.5; typically 500 µM unglycosylated CEACAM-N domain in the syringe, 50 µM IgI3 domain; duplicates
attribute measured: Kd (nM)
Report as a plain number; the unit nM is understood.

Report Kd for tag-less CEACAM1 N-terminal domain, unglycosylated (from UniProt P13688 34-141) (domain or fragment) please. 16

###

# tested target: β-IgI3 D55A, as used in ITC (Streptococcus agalactiae (GBS))
# test details: ITC; iTC200, 25°C, 30 mM Tris-HCl, 150 mM NaCl, pH 7.5; typically 500 µM unglycosylated CEACAM-N domain in the syringe, 50 µM IgI3 domain; duplicates
attribute measured: Kd (nM)
Report as a plain number; the unit nM is understood.

Report Kd for tag-less CEACAM1 N-terminal domain, unglycosylated (from UniProt P13688 34-141) (domain or fragment) please. 690

###

The entries below are paired with their reported Kd.
# tested target: IgSF (IgI3) domain of β protein, recombinant, as used in ITC (Streptococcus agalactiae (GBS))
# test details: ITC; iTC200, 25°C, 30 mM Tris-HCl, 150 mM NaCl, pH 7.5; typically 500 µM unglycosylated CEACAM-N domain in the syringe, 50 µM IgI3 domain; duplicates
Provide the measurement as a number trailed by its unit.

Solved cases (2 shown):
> print(dat)
                                  substance  attribute.measured    result
1  tag-less CEACAM1-N N97A, unglycosylated (from UniProt P13688 34-141) (domain or fragment)                  Kd   0.49 µM
2  tag-less CEACAM1-N Q44A, unglycosylated (from UniProt P13688 34-141) (domain or fragment)                  Kd  0.996 µM

Report Kd for tag-less CEACAM1 N-terminal domain, unglycosylated (from UniProt P13688 34-141) (domain or fragment) please. 0.096 µM
